test.readout: melting point

molecule: CCCCCCN(Cc1ccc(N(C)C)cc1)c1c(N[C@@H](Cc2ccccc2)C(=O)O)c(=O)c1=O
melting point: 77 to 80 °C
//
molecule: COC(=O)[C@H]1OC(O)[C@H](OC(=O)C(C)C)[C@@H](OC(=O)C(C)C)[C@@H]1OC(=O)C(C)C (stereo partly specified)
melting point: 89 °C
//
molecule: CN(C)CC(=O)Nc1cccc2nc(N[C@@H]3CCc4ccccc43)ccc12
melting point: 153 °C

Given the entry CC(C)(C)OC(=O)CON=C(C(=O)O)c1ccsc1 , report its measured melting point.
103 to 104 °C

###

test.readout: melting point

Recorded results for 4 compounds are shown here.
smiles: COCCN1CCSc2ccc(Nc3ncc(Cl)c(N[C@@H]4CCCC[C@H]4NS(C)(=O)=O)n3)cc2C1
test.readout: melting point
value: 140 to 143 °C
//
smiles: O=C(c1ccccc1)c1ncc(=O)n(CC(F)(F)F)n1
test.readout: melting point
value: 174 to 175 °C
//
smiles: COc1ccc2nc(C)[nH]c(=O)c2c1Br
test.readout: melting point
value: 273 to 274 °C
//
smiles: O=C(CCc1cc2cccnc2n(-c2cccc([N+](=O)[O-])c2)c1=O)c1ccncc1
test.readout: melting point
value: 200 to 202 °C

Please turn your attention to the following entry.
Given the entry CC(C)(C)OC(=O)NC(=N)NC(=O)c1cccc(P(c2ccccc2)c2ccccc2)c1 , report its measured melting point.
79 to 82 °C

###

Below, each entry is listed with its recorded melting point.

compound: Cc1c(C)c2c(c(C)c1O)CCC(C)(COc1ccc(CC(Cl)C(=O)O)cc1)O2 (centres undefined)
value: 148 to 149 °C

Given the entry CC(C)(C)OC(=O)Nc1ccc(-c2ccccc2F)cc1NC(=O)CC(=O)c1cccc(-n2ccnc2)c1 , report its measured melting point.
50 to 58 °C

Can you handle O=C(O)c1ccc2c(c1)C=C(Cn1ccnc1)CO2 next?
258 to 259 °C

Can you handle c1cc(OCCCCc2nnn[nH]2)cc(OCc2ccc3ccccc3n2)c1 next?
120 to 130 °C

Can you handle O=[N+]([O-])c1cccc(-c2cnc3[nH]c4ccccc4c3c2)c1 next?
> 220 °C

Can you handle CCCCCCNC(=O)c1cc(OC(C)=O)ccc1OC(C)=O next?
76.5 to 77 °C

Can you handle CS(=O)(=O)c1ccc(C(=O)C(=CO)C(=O)C2CC2)c(Cl)c1-c1nccs1 next?
176 °C

Can you handle Cc1ccc(C(C)(C)C)c(Oc2ccc(O)cc2)c1 next?
102 °C

Can you handle Clc1cnc(Br)c(Br)c1 next?
39.5 to 43 °C

Can you handle CCC1c2nc[nH]c2CCN1C(=O)NC (centres undefined) next?
240 °C

Can you handle CC1(C)C(=O)Nc2cc3[nH]c(-c4cncnc4)nc3cc21 next?
310 to 312 °C

Can you handle COc1cc(C2=CCCCC2)c(Cl)cc1C(=O)N1Cc2ccc(C(=O)N(C)Cc3cccnc3)n2Cc2ccccc21 next?
178 to 179 °C

Can you handle Cc1ccc(N2CCN(CCCCl)CC2)cc1 next?
34 to 36 °C

Can you handle CCCCCCCCOC(=O)CCc1cc(C(C)(C)C)c2oc(-c3ccc(-c4nc5cc(CCC(=O)OCCCCCCCC)cc(C(C)(C)C)c5o4)s3)nc2c1 next?
68 to 70 °C

Can you handle CC(C)(C)c1ccccc1N1CCN(C(=O)c2ccc(F)cc2)CC1 next?
137 to 139 °C

Can you handle CON=CCNC(=O)c1c(I)cccc1C(=O)Nc1ccc(C(F)(F)C(F)(F)F)cc1C next?
110 °C

Can you handle COC(=O)c1ccc(-c2nnc(-c3ccc(OC(F)(F)C(F)(F)F)cc3)o2)cc1 next?
185 to 191 °C

Can you handle CN1CCN(c2cc(Cl)cc3c2c(=O)n(Cc2ccccc2[N+](=O)[O-])c(=O)n3Cc2ccccc2)CC1 next?
164 to 169 °C

Can you handle CN(C)C(=O)c1c(CNS(=O)(=O)c2cccc(Cl)c2)nn(-c2ccc(Cl)cc2Cl)c1-c1ccc(Cl)cc1 next?
178 °C

###

test.readout: melting point

Recorded results for 4 compounds are shown here.
compound: Cc1nc2c(cc1CO)CCCCC2
value: 79 to 80 °C

compound: O=C(O)c1ccc(-c2nc(-c3cccc(C(F)(F)F)c3)co2)cc1
value: 253 to 254 °C

compound: O=C(O)CCCCOc1ccc(OCc2ccccc2)cc1
value: 127 to 128 °C

compound: NC(=O)c1ccc(OCC(F)(F)F)cc1
value: 177 to 178 °C

Given the entry N#CCOC(=O)c1ccc2nc3ccc(O)cc3c(=O)n2c1 , report its measured melting point.
260 to 262 °C

Can you handle CCOc1cc2c3cc(OCC)c(OCC)cc3c3c(OC)ccc(OC)c3c2cc1OCC next?
157 to 158 °C

Can you handle CCOC(=O)c1c(-c2ccc(F)cc2)c2nccnc2c(=O)n1C next?
221 to 222 °C

Can you handle COC(=O)c1nc(I)cc(N)c1Cl next?
152 to 153 °C

Can you handle CCOC(=O)C1(F)C(=O)NC(=O)NC1ON=C1CCC1 (stereo unspecified) next?
188 to 189 °C

Can you handle O=C1N(Cc2ccccn2)c2cccc(-c3cncnc3)c2C12COc1cc3c(cc12)CCO3 (stereo unspecified) next?
> 200 °C

Can you handle CCCc1sc(-c2ccccc2)nc1OC(=O)NC(C)(C)C next?
97 to 98 °C

###

test.readout: melting point (°C)

Recorded results for 2 molecules are shown here.
molecule: COc1cccc(NC(C)=O)c1C(=O)NC1CCN(C(C)CC(C(=O)N(C)C)(c2ccccc2)c2ccccc2)CC1O (centres undefined)
value: 146

molecule: O=S1(=O)c2cccc3cccc(c23)N1CCCCN1CC=C(c2ccccc2)CC1
value: 101

I = CCCCn1c(-c2ccc(Cl)c(S(=O)(=O)N(C)C)c2)csc1=Nc1ccccc1C
II = CCc1cccc(C)c1CNc1cc(CO)cn2nc(C)nc12
Would you mind telling me which has the lower recorded melting point between I and II ? Refer to your chosen entry by its label in the reply.
I

###

test.readout: melting point

Recorded results for 8 molecules are shown here.
molecule: Cc1c2c(c(C)c3c1NC(C)(C)C3)OC(C)(CI)C2 (stereo not drawn)
melting point: 100 to 104 °C
//
molecule: Cn1cc(C(=O)Nc2cnccc2-c2ccc(Cl)cc2)c(C(F)(F)F)c1
melting point: 178 to 180 °C
//
molecule: O=C(O)/C=C1\Cc2ccccc2C1=O
melting point: 201 to 203 °C
//
molecule: O=C(O)CCC(Cc1ccc(Cl)cc1Cl)(C(=O)C=Cc1ccc(Cl)cc1)c1ccccc1 (stereo not drawn)
melting point: 215 to 226 °C
//
molecule: C=CCC(c1ccc(C(O)(C(F)(F)F)C(F)(F)F)cc1)S(=O)(=O)c1ccccc1 (stereo not drawn)
melting point: 148 °C
//
molecule: Cn1nc(C(F)(F)F)c(CS(=O)(=O)C2=NOC(C)(C)C2)c1Cl
melting point: 115 to 116 °C
//
molecule: CC(C)(C)OC(=O)N1CCN(C(=O)NNC(=O)OCc2ccccc2)CC1
melting point: 194 to 196 °C
//
molecule: O=C(CN1C(=O)C(NC(=O)Nc2ccc(Cl)cc2)N=C(c2ccccc2)c2ccccc21)NCc1ccccc1 (stereo not drawn)
melting point: 260 to 262 °C

Given the entry CN(C)C=Nc1cccc2nc(N3CCN(C)CC3)c(N3CCN(C)CC3)nc12 , report its measured melting point.
183 to 186 °C

Can you handle COC(=O)Nc1nc2c(C(C)C)cc(SC3=C(O)C[C@@](CCc4ccc(O)cc4)(C(C)C)OC3=O)c(C)c2s1 next?
150 to 151 °C

Can you handle CCOC(=O)c1ccccc1Nc1c([N+](=O)[O-])cc(C(F)(F)F)cc1[N+](=O)[O-] next?
152 to 154 °C

Can you handle O=C(Nc1cccc(Br)c1)c1ccccc1SSc1ccccc1C(=O)Nc1cccc(Br)c1 next?
194 to 196 °C

Can you handle O=C(O)C(=NOCc1cccnc1)c1csc(NC(c2ccccc2)(c2ccccc2)c2ccccc2)n1 next?
192 °C

Can you handle Cc1nc2c([nH]1)C(=O)c1ccccc1C2=O next?
> 260 °C

Can you handle COc1ccc(C2=NNC(=O)Cc3cc4c(cc32)OCO4)cc1 next?
194 to 196 °C

Can you handle CCOC(=O)C(CCC#N)(C(=O)OCC)c1ccc([N+](=O)[O-])cn1 next?
59.5 to 61 °C

Can you handle CCOC(=O)c1ncn(-c2nn(C)cc2Cl)c1S(N)(=O)=O next?
167 to 168 °C

###

Below, each entry is listed with its recorded melting point.

molecule: COc1ccc(C2CCN(C(=O)Nc3ccc4cc(CN5CCCC5)cnc4c3)CC2)cc1
melting point: 241 to 243 °C

molecule: Clc1ccc(-c2cccs2)cn1
melting point: 124 to 126 °C

molecule: [N-]=[N+]=NCc1cc(=O)c(OCc2ccccc2)cn1Cc1ccccc1
melting point: 120 °C

molecule: CCOP(=O)(CS(=O)(=O)Oc1ccccc1)OCC
melting point: 50.5 to 51.5 °C

molecule: CCC1(O)CC(=O)OCc2c1cc1n(c2=O)Cc2c-1nc1ccccc1c2-c1ccc(C)cc1 (stereo not given)
melting point: > 280 °C

Given the entry CC(C)OC(=O)CCc1ccc(-n2ccn(-c3ccc(C(=N)N)cc3)c2=O)cc1 , report its measured melting point.
> 250 °C

Can you handle O=C(O)c1cnc(-c2ccccc2)c2ccccc12 next?
215 to 217 °C

Can you handle CCOC(=O)c1cn(C[C@@H]2CN(c3ccc(N4CCC(=CC#N)CC4)c(F)c3)C(=O)O2)nn1 next?
164 to 166 °C

Can you handle CCOCCCC(NC=O)C1(c2ccc(Cl)cc2)CCC1 (stereo not given) next?
58 to 59 °C

Can you handle O=C(C(=O)c1ccc(Cl)cc1)c1ccncc1 next?
119 to 120 °C

The reported numbers originate from a melting point compilation (Tetko et al.; mined from patent text by program, amines drawn as free bases though some values may be those of a salt).
